# Test system: Human primary myoblasts
# ASSAY_METHOD_TEXT: Hypertrophy assay (MyoScreen human myotube model): primary screening, retest, dose response
# Format: cell-based
# RUN_PARAMETERS: Donor 5; Example 2 dose response
QUANTITY_MEASURED: EC50 (nM)
One number for each entry, in nM.

[Q] Note EC50 for the compound shown: Cl.Cl.NNCCc1ccc(NC(=O)CCCc2ccccc2)cc1 [Bizine]
[A] 87
